The values you see were collected from patent US20100298141A1.

# Test system: rice
# Experiment Summary: Test C flooded paddy test
# Format: in vivo, Oryza sativa
# Settings: Flood, 125 g ai/ha; scale 0 to 100, 0 no effect, 100 complete control; 13 to 15 days
I'd appreciate it if you could supply Plant response rating, Rice values for the items below.
In your answer, state the number alone without any accompanying words.

Enquiry: Hello, please tell me recorded Plant response rating, Rice for this one: `Cn1nc(C(F)(F)F)c(CS(=O)(=O)c2cc(F)cc[n+]2[O-])c1Cl`
Return: 0

Enquiry: Determine from records and report Plant response rating, Rice for Cc1cc[n+]([O-])c(S(=O)(=O)C(C)c2c(C(F)(F)F)nn(C)c2Cl)c1 (racemic)
Return: 60

Enquiry: Using the record for `Cn1nc(C(F)(F)F)c(CS(=O)(=O)c2cccc[n+]2[O-])c1OC(F)F` , state its measured Plant response rating, Rice.
Return: 70

Enquiry: Provide measured Plant response rating, Rice value, entry: Cc1cc[n+]([O-])c([S+]([O-])Cc2c(C(F)(F)F)nn(C)c2Cl)c1 (racemic)
Return: 0

Enquiry: Entry Cc1cc[n+]([O-])c(S(=O)(=O)C(C)c2c(C(F)(F)F)nn(C)c2OC(F)F)c1 (stereo not shown) needs its Plant response rating, Rice filled in; supply it.
Return: 80

Enquiry: Using known records, supply Plant response rating, Rice for `Cn1nc(C(F)(F)F)c(CS(=O)(=O)c2cc(C(C)(C)C)cc[n+]2[O-])c1OC(F)F`
Return: 65

Enquiry: Recall and state the measured Plant response rating, Rice for Cn1nc(C(F)(F)F)c(C[S+]([O-])c2cccc[n+]2[O-])c1OCC(F)(F)F (racemic) .
Return: 65

Enquiry: Find the measured Plant response rating, Rice of `Cc1cc[n+]([O-])c(S(=O)(=O)Cc2c(C(F)(F)F)nn(C)c2Cl)c1` and report it.
Return: 30

Enquiry: Provide one value: measured Plant response rating, Rice of `Cn1nc(C(F)(F)F)c(CS(=O)(=O)c2ccc(F)c[n+]2[O-])c1OCC(F)(F)F`
Return: 20

Enquiry: Return the recorded Plant response rating, Rice value; entry: Cn1nc(C(F)(F)F)c(C[S+]([O-])c2cc(F)cc[n+]2[O-])c1Cl (racemic)
Return: 25

Enquiry: Entry Cn1nc(C(F)(F)F)c(C[S+]([O-])c2ccc(Br)c[n+]2[O-])c1OC(F)F (racemic) needs its Plant response rating, Rice filled in; supply it.
Return: 0

Enquiry: Return Plant response rating, Rice (reported value) for this compound: Cn1nc(C(F)(F)F)c(C[S+]([O-])c2cccc[n+]2[O-])c1OC(F)F (stereo not shown)
Return: 60

Enquiry: Indicate its recorded Plant response rating, Rice; the compound in question is Cn1nc(C(F)(F)F)c(C[S+]([O-])c2ccc(F)c[n+]2[O-])c1Cl (stereo not shown)
Return: 15

Enquiry: Read off the recorded Plant response rating, Rice for Cn1nc(C(F)(F)F)c(C[S+]([O-])c2cc(C(C)(C)C)cc[n+]2[O-])c1OC(F)F (racemic)
Return: 45

Enquiry: Supply measured Plant response rating, Rice of `Cn1nc(C(F)(F)F)c(CS(=O)(=O)c2cccc[n+]2[O-])c1OCC(F)(F)F` in your reply.
Return: 40

Enquiry: In one line, give reported Plant response rating, Rice of the entry Cn1nc(C(F)(F)F)c(C[S+]([O-])c2cc(Cl)cc[n+]2[O-])c1Cl (racemic) .
Return: 40
